# measured-target: Tyrosine-protein kinase JAK3 (Homo sapiens, UniProt P52333)
# Sequence (P52333 whole entry): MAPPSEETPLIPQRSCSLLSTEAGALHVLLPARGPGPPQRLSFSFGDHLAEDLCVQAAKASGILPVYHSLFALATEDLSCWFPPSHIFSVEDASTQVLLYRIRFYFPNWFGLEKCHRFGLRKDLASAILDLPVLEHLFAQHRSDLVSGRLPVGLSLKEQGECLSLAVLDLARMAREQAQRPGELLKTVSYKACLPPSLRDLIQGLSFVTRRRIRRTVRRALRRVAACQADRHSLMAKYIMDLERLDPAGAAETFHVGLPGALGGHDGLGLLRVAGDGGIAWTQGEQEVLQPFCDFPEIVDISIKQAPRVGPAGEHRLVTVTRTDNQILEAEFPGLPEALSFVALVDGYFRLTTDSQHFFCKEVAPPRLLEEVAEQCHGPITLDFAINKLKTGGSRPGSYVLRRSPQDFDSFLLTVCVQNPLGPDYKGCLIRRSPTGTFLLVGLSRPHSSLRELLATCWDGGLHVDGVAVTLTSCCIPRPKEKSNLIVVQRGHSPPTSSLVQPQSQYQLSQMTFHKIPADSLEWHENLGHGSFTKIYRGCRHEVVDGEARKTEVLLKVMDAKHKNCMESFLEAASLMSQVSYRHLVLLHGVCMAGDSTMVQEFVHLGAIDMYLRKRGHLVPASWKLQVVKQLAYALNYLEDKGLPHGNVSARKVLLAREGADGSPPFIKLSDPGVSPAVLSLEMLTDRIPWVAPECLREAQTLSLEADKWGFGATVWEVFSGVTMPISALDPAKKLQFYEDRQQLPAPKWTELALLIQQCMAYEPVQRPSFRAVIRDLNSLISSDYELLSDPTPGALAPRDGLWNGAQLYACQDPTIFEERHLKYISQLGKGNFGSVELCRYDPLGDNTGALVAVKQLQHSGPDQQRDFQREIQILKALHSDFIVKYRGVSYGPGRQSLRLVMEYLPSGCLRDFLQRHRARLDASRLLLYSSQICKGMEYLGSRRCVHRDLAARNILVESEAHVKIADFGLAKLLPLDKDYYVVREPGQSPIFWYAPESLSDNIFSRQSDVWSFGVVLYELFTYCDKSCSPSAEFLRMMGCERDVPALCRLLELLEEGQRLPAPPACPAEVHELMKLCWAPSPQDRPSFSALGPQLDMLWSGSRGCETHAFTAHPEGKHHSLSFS
pIC50: −log10 of the molar value.
# pIC50 against Tyrosine-protein kinase JAK3 (Homo sapiens, UniProt P52333), merged from multiple literature sources

C=CCn1c2ccccc2c2c3c(c4c5ccccc5n(CC=C)c4c21)C(=O)NC3: < 6.70
C=CC(=O)Nc1cccc(C)c1Nc1ncc(OCc2c(F)c(OC)cc(OC)c2F)cn1: < 5.00
O=C(Nc1ccc(NC(=O)c2ccccn2)cc1)c1ccc(O)c([N+](=O)[O-])c1: < 4.52
COc1cc(Nc2nc(N[C@@H](C)c3ncc(F)cn3)ncc2Br)n[nH]1: < 4.52
COc1cc2c(Nc3ccc(NC(=O)c4ccccc4)cc3)ncnc2cc1OCC(N)=O: < 4.52
CC(C)(O)c1ccc2c(c1)CC[C@H]1[C@](C)(C(=O)O)CCC[C@]21C: < 4.00
CC(=O)Nc1ccc(-c2ccnc(NCCCNC(=O)c3c(Cl)cccc3Cl)n2)cc1: < 5.30

# next compound below
Lab note: measured pIC50 of Cc1[nH]nc2[nH]c(=O)cc([C@H]3C[C@H]4C[C@@H]3C[C@H]4CC#N)c12 was 6.01
